# target.desc: δ opioid receptors (Rattus norvegicus, UniProt P33533)
# Construct: membranes prepared from whole rat brain (less cerebellum); from tissue; host or cells: whole rat brain (less cerebellum) membranes
# Sequence (P33533 whole entry): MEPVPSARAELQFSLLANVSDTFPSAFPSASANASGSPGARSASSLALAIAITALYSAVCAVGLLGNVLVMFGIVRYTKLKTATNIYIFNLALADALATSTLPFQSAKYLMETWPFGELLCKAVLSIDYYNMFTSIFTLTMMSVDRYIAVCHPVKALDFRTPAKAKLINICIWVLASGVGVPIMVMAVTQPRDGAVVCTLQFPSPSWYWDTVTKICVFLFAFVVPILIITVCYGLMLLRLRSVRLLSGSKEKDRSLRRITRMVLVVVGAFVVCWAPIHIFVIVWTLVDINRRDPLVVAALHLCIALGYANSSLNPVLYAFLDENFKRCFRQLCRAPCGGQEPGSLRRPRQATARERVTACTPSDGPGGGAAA
# assay.method.text: Radioligand binding, [3H]DPDPE, brain membranes
# condition.details: rat brain homogenate, 1.0 nM radioligand
Bridge positions count the residues as written; N and C are the ends. Peptide text beside a SMILES is read from it.
parameter: IC50
Reply with the number and its unit after it.

compound="CC[C@H](C)[C@@H]1NC(=O)[C@H](CCCN=C(N)N)NC(=O)[C@H](CCCN=C(N)N)NC(=O)[C@@H](NC(=O)[C@H](Cc2ccccc2)NC(=O)CNC(=O)CNC(=O)[C@@H](N)Cc2ccc(O)cc2)CSSC[C@@H](C(N)=O)NC(=O)[C@@H]2CCCN2C(=O)[C@H](CCCN=C(N)N)NC1=O [Compound 1] (H-YGGFCRRIRPC-NH2; disulfide 5-11)" result="18.6 nM"
compound="CC[C@H](C)[C@H](NC(=O)[C@H](CCCNC(=N)N)NC(=O)[C@H](CCCNC(=N)N)NC(=O)[C@H](CC(C)C)NC(=O)[C@H](Cc1ccccc1)NC(=O)CNC(=O)CNC(=O)[C@@H](N)Cc1ccccc1)C(=O)N[C@@H](CCCNC(=N)N)C(=O)N1CCC[C@@H]1C(=O)N[C@@H](CCCCN)C(N)=O [Compound 6, [Phe^1, D-Pro^10]Dyn A1-11NH2]" result="390 nM"

Quick one: IC50 of C[C@H]1NC(=O)[C@H](CCCNC(=N)N)NC(=O)[C@H](CCCNC(=N)N)NC(=O)[C@@H](NC(=O)[C@H](Cc2ccccc2)NC(=O)CNC(=O)CNC(=O)[C@@H](N)Cc2ccc(O)cc2)CSSC[C@@H](C(N)=O)NC(=O)[C@@H]2CCCN2C(=O)[C@H](CCCNC(=N)N)NC1=O [Compound 2] ?
1.63 nM
